molecular target: HIV-1 Env of isolate MGRM-D-016 (subtype D) (HIV-1); experiment: cell-based or functional assay
test-readout: IC50 (neutralization)

-- ask Which IC50 (neutralization) is reported for this binder? PGT-136 (antibody, V domains shown) VH: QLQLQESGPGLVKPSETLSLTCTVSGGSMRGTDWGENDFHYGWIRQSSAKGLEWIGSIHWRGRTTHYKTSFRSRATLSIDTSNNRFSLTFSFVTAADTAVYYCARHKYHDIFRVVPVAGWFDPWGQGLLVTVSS VL: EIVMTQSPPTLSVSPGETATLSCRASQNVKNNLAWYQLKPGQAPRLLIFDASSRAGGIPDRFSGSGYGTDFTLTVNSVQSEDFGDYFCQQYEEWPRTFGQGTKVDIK
-- reply > 50 µg/mL
